test: Oral bioavailability in CD-1 mouse at 20 mg/kg administered as DMSO/PEG400/Cremophor RH40/water formulation measured upto 24 hrs by LC-MS/MS analysis; format: ADME, organism-based; conditions: in vivo
property-label: bioavailability (%)

- smiles-data: "O=c1[nH]c(-c2ccccc2)cn2cc([N+](=O)[O-])nc12"
  property-label: "bioavailability"
  unit-name: "%"
  endpoint-result: 87

----------
test: Solubility of compound in water at pH 7 by LC-UV analysis; format: physicochemical
property-label: solubility

- smiles-data: "O=c1c2nc([N+](=O)[O-])cn2ccn1Cc1ccc(OC(F)(F)F)cc1"
  endpoint-result: "< 1 µM"

----------
experiment: Half life in CD-1 mouse at 20 mg/kg, po administered as DMSO/PEG400 formulation measured upto 24 hrs by LC-MS/MS analysis; assay type: ADME, organism-based; conditions: in vivo
Reported half-life values follow for various compounds

- smiles-data: "O=c1c2nc([N+](=O)[O-])cn2ccn1Cc1ccc(-c2ccc(OC(F)(F)F)cc2)cn1"
  unit-name: "h"
  half-life: 6.1
- smiles-data: "O=c1c2nc([N+](=O)[O-])cn2ccn1Cc1ccc(-c2cccnc2)cc1"
  unit-name: "h"
  half-life: 0.77
- smiles-data: "O=c1c2nc([N+](=O)[O-])cn2ccn1Cc1ccc(OC(F)(F)F)cc1"
  unit-name: "h"
  half-life: 4.8

----------
assay: Stability in human plasma assessed as compound remaining measured after 2 hrs; assay type: ADME, cell-free; settings: read-out: Stability

- smiles-data: "O=c1c2nc([N+](=O)[O-])cn2ccn1Cc1ccc(OC(F)(F)F)cc1"
  remaining at 2 h, %: 98
- smiles-data: "O=c1c2nc([N+](=O)[O-])cn2ccn1Cc1cccc(OC(F)(F)F)c1"
  remaining at 2 h, %: 99

----------
assay: Volume of distribution at steady state in CD-1 mouse at 5 mg/kg, iv administered as DMSO/PEG400 formulation measured upto 24 hrs by LC-MS/MS analysis; assay type: ADME, organism-based; settings: in vivo, read-out: Vdss
Returns one of label 1 or label 0; label 1 when Vd is >= 2 L/kg.

- smiles-data: "O=c1c2nc([N+](=O)[O-])cn2ccn1Cc1cccc(C(F)(F)F)c1"
  label: "label 0"
- smiles-data: "O=c1c2nc([N+](=O)[O-])cn2ccn1Cc1ccc(OC(F)(F)F)cc1"
  label: "label 1"
- smiles-data: "O=c1c2nc([N+](=O)[O-])cn2ccn1Cc1ccc(-c2ccc(OC(F)(F)F)cc2)cn1"
  label: "label 0"
- smiles-data: "O=c1c2nc([N+](=O)[O-])cn2ccn1Cc1ccc(-c2cccnc2)cc1"
  label: "label 1"
- smiles-data: "O=c1c2nc([N+](=O)[O-])cn2ccn1Cc1cccc(OC(F)(F)F)c1"
  label: "label 0"

----------
experiment: Half life in CD-1 mouse at 20 mg/kg, po administered as DMSO/PEG400/Cremophor RH40/water formulation measured upto 24 hrs by LC-MS/MS analysis; assay type: ADME, organism-based; conditions: in vivo

- smiles-data: "O=c1[nH]c(-c2ccccc2)cn2cc([N+](=O)[O-])nc12"
  half-life / h: 3.2

----------
Reported log10 solubility values follow for various compounds
assay: Solubility of compound in water by LC-UV analysis; format: physicochemical; settings: water; read-out: solubility
property-label: log10 solubility (log10 of the value in µM)

- smiles-data: "O=c1c2nc([N+](=O)[O-])cn2ccn1Cc1cccc(C(F)(F)F)c1"
  endpoint-result: 0.46
- smiles-data: "O=c1c2nc([N+](=O)[O-])cn2ccn1Cc1cccc(OC(F)(F)F)c1"
  endpoint-result: 0.73
- smiles-data: "O=C1CCn2cc([N+](=O)[O-])nc2N1Cc1ccccc1"
  endpoint-result: 2.14
- smiles-data: "O=C1c2nc([N+](=O)[O-])cn2CN1Cc1ccccc1"
  endpoint-result: 0.77
- smiles-data: "O=c1c2nc([N+](=O)[O-])cn2ccn1Cc1ccccc1"
  endpoint-result: 0.51
